System under test: unphosphorylated T315I Abl kinase domain (Mus musculus, UniProt P00520, T315I)
Construct: purified and unphosphorylated T315I Abl kinase domain
Sequence (P00520 242-493 T315I limits assumed): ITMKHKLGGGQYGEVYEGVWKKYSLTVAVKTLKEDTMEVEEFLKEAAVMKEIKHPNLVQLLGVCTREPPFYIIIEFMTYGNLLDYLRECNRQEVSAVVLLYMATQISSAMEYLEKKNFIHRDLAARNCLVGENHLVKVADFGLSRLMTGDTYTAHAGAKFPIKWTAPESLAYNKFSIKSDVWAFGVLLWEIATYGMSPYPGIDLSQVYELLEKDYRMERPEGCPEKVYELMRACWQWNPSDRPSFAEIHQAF
Assay explanation: c-Abl T315I 0P bioassay (pyruvate kinase/lactate dehydrogenase coupled enzyme assay)
Condition context: zero phosphorylation state (0P), 10 μM ATP, read-out: AbI T315I 0P IC50
pIC50: −log10 of the molar value.
Measured quantity: pIC50

Answered examples (5):
COc1ccccc1-c1c[nH]c2ncc(-c3cncc([C@H](O)C(=O)N(C)C)c3)cc12: > 7.30
COc1ccccc1-c1n[nH]c2ncc(-c3cccc(C(C)C(=O)N4CCC(N(C)C)CC4)c3)cc12 (stereo not shown): > 7.30
CN(C)C(=O)C(O)c1cncc(-c2cnc3[nH]cc(-c4ccncc4)c3c2)c1 (stereo not shown): 6.30 to 7.30
CN(C)C(=O)C(O)c1cncc(-c2cnc3[nH]cc(-c4ccc(CO)cc4)c3c2)c1 (stereo not shown): > 7.30
COc1ccccc1-c1n[nH]c2ncc(-c3cccc(C(C)(O)C(=O)N4CC(O)C4)c3)cc12 (stereo not shown): > 7.30

Fill in pIC50 for each of the 3 compounds listed.
1. CN(C)C(=O)C(O)c1cncc(-c2cnc3[nH]cc(-c4ccnn4-c4ccccc4)c3c2)c1 (stereo not shown)
2. COc1ccc(-c2c[nH]c3ncc(-c4cncc(C(O)C(=O)N(C)C)c4)cc23)cc1 (stereo not shown)
3. COc1ccccc1-c1c[nH]c2ncc(-c3cccc(C4NC(=O)NC(C)=C4C(=O)N(C)C)c3)cc12 (stereo not shown)

1. > 7.30
2. > 7.30
3. > 7.30

====

System under test: Ba/F3 cells, ABL1 WT (Homo sapiens, UniProt P00519)
Assay explanation: 96-well XTT cell survival assay, Ba/F3 ABL1 WT
Type: cell-based
Condition context: 72 hours, read-out: ABL1 WT XTT [Ba/F3] IC50
Measured quantity: GI50

Answered examples (5):
COc1ccccc1-c1c[nH]c2ncc(-c3cncc(C(O)C4CC4)c3)cc12 (stereo not drawn): < 1000 nM
CN(C)C(=O)C(O)c1cncc(-c2cnc3[nH]cc(-c4cccc(C(F)(F)F)c4)c3c2)c1 (stereo not drawn): > 1000 nM
CC(=O)c1ccccc1-c1c[nH]c2ncc(-c3cncc(C(O)C(=O)N(C)C)c3)cc12 (stereo not drawn): > 1000 nM
CC[C@@H]1OCO[C@H]1c1cccc(-c2cnc3[nH]nc(-c4ccccc4OC)c3c2)c1: > 1000 nM
COc1ccccc1-c1n[nH]c2ncc(-c3cccc(C(O)C(=O)NCCN(C)C)c3)cc12 (stereo not drawn): < 1000 nM

Fill in GI50 for each of the 4 compounds listed.
1. COc1ccccc1-c1n[nH]c2ncc(-c3cccc(C(C)C(=O)N4CCC(O)C4)c3)cc12 (stereo not drawn)
2. COc1ccccc1-c1n[nH]c2ncc(-c3cccc(C(O)C(=O)N(C)CCC#N)c3)cc12 (stereo not drawn)
3. COc1ccccc1-c1n[nH]c2ncc(-c3cccc(C(O)C(=O)N4CCC(N(C)C)C4)c3)cc12 (stereo not drawn)
4. COc1ccccc1-c1c[nH]c2ncc(-c3cccc(C(O)c4nccn4C)c3)cc12 (stereo not drawn)

> 1000 nM
< 1000 nM
< 1000 nM
< 1000 nM

====

Assign pIC50 to each entry below.
System under test: unphosphorylated T315I Abl kinase domain (Mus musculus, UniProt P00520, T315I)
Construct: purified and unphosphorylated T315I Abl kinase domain
Assay explanation: c-Abl T315I 0P bioassay (pyruvate kinase/lactate dehydrogenase coupled enzyme assay)
Condition context: zero phosphorylation state (0P), 10 μM ATP, read-out: AbI T315I 0P IC50
pIC50: −log10 of the molar value.

Answered examples (5):
CN(C)C(=O)C(O)c1cncc(-c2cnc3[nH]cc(-c4cccc(Cl)c4)c3c2)c1 (stereo not drawn) [drawing 459]: > 7.30
Cc1ccc(-c2c[nH]c3ncc(-c4cncc(C(O)C(=O)N(C)C)c4)cc23)cc1 (stereo not drawn): > 7.30
CN(C)C(=O)C(O)c1cncc(-c2cnc3[nH]cc(-c4ccc(C(F)(F)F)cc4)c3c2)c1 (stereo not drawn): 6.30 to 7.30
COc1ccccc1-c1c[nH]c2ncc(-c3cncc(C(=O)C(=O)N(C)C)c3)cc12: > 7.30
COc1ccccc1-c1n[nH]c2ncc(-c3cccc(C(O)C(=O)N4CCC(O)C4)c3)cc12 (stereo not drawn): > 7.30

Fill in pIC50 for each of the 4 molecules listed.
1. COc1ccccc1-c1c[nH]c2ncc(-c3cccc(C(O)C(=O)N(C)CCN(C)C)n3)cc12 (stereo not drawn)
2. COc1ccccc1-c1n[nH]c2ncc(-c3cccc(C(O)C(=O)N(C)Cc4ccco4)c3)cc12 (stereo not drawn)
3. COc1ccccc1-c1c[nH]c2ncc(-c3cccc(C(CC(=O)N(C)CCN(C)C)N4CCS(=O)(=O)CC4)c3)cc12 (stereo not drawn)
4. CN(C)C(=O)C(O)c1cncc(-c2cnc3[nH]cc(-c4cccc(C#N)c4)c3c2)c1 (stereo not drawn)

1. > 7.30
2. > 7.30
3. < 6.30
4. 6.30 to 7.30

====

Assign GI50 to each entry below.
System under test: Ba/F3 cells, ABL1 T315I (Homo sapiens, UniProt P00519, T315I, cells depend on it)
Assay explanation: 96-well XTT cell survival assay, Ba/F3 ABL1 T315I
Format: cell-based
Condition context: 72 hours, read-out: ABL1 T315I XTT [Ba/F3] IC50
Procedure: MV4-11 and THP cells were maintained in Iscove's Modified Dulbecco's Medium supplemented with 10% fetal bovine serum (FBS) and penicillin/streptomycin, Ba/F3 cells were maintained in RPMI 1640 supplemented with 10% FBS, penicillin/streptomycin and 5 ng/ml recombinant mouse IL-3. Compounds were tested in the following assays in duplicate. […]

Answered examples (3):
COc1ccccc1-c1c[nH]c2ncc(-c3cccc(C(O)C(=O)N(C)CC4CCCO4)c3)cc12 (stereo not drawn): < 1 µM
COc1ccccc1-c1n[nH]c2ncc(-c3cccc([C@H](O)[C@@H](O)C(C)C)c3)cc12: < 1 µM
COc1ccc(F)cc1-c1c[nH]c2ncc(-c3cc(C(O)C(=O)N(C)C)c[n+]([O-])c3)cc12 (stereo not drawn): > 1 µM

Fill in GI50 for each of the 8 molecules listed.
1. COc1ccccc1-c1n[nH]c2ncc(-c3cccc(C(OC)C(=O)N(C)CCN(C)C)c3)cc12 (stereo not drawn)
2. CN(C)C(=O)C(O)c1cc(-c2cnc3[nH]cc(-c4ccccc4F)c3c2)cnc1N (stereo not drawn)
3. COc1ccccc1-c1c[nH]c2ncc(-c3cc(C(C#N)C(=O)N(C)C)ncn3)cc12 (stereo not drawn)
4. CN(C)C(=O)C(O)c1cncc(-c2cnc3[nH]cc(-c4ccc(OC(F)(F)F)cc4)c3c2)c1 (stereo not drawn)
5. COc1ccccc1-c1n[nH]c2ncc(-c3cccc(C(O)C(=O)N(C4CC4)C4CCN(C)CC4)c3)cc12 (stereo not drawn)
6. COc1ccccc1-c1c[nH]c2ncc(-c3cccc(C(N)C(=O)N(C)CCN(C)C)c3)cc12 (stereo not drawn)
7. COc1ccccc1-c1n[nH]c2ncc(-c3cccc(C(C)C(=O)N4CCC(N(C)C)CC4)c3)cc12 (stereo not drawn)
8. COc1ccccc1-c1n[nH]c2ncc(-c3cccc(C(C(=O)N(C)CCN(C)C)N(C)C)c3)cc12 (stereo not drawn)

["< 1 µM", "< 1 µM", "> 1 µM", "> 1 µM", "< 1 µM", "> 1 µM", "< 1 µM", "> 1 µM"]

====

System under test: Ba/F3 cells, ABL1 WT (Homo sapiens, UniProt P00519)
Assay explanation: 96-well XTT cell survival assay, Ba/F3 ABL1 WT
Type: cell-based
Condition context: 72 hours, read-out: ABL1 WT XTT [Ba/F3] IC50
Assign GI50 to each entry below.

Answered examples (4):
COc1ccccc1-c1n[nH]c2ncc(-c3cccc([C@@H]4OCO[C@@H]4C(C)C)c3)cc12: > 1 µM
CC[C@H](O)[C@@H](O)c1cccc(-c2cnc3[nH]nc(-c4ccccc4OC)c3c2)c1: < 1 µM
CN(C)C(=O)C(O)c1cncc(-c2cnc3[nH]cc(-c4ccnn4CCO)c3c2)c1 (stereo not shown): > 1 µM
CN(C)C(=O)C(O)c1cncc(-c2cnc3[nH]cc(-c4ccc(CO)cc4)c3c2)c1 (stereo not shown): > 1 µM

Fill in GI50 for each of the 8 compounds listed.
1. CN(C)C(=O)C(O)c1cncc(-c2cnc3[nH]cc(-c4cccc5c4OC(F)(F)O5)c3c2)c1 (stereo not shown)
2. COc1ccccc1-c1n[nH]c2ncc(-c3cccc(C(C)C(=O)N(C)C4CCN(C)C4)c3)cc12 (stereo not shown)
3. CN(C)C(=O)C(O)c1cncc(-c2cnc3[nH]cc(-c4ccccc4F)c3c2)c1 (stereo not shown)
4. CN(C)C(=O)C(O)c1cncc(-c2cnc3[nH]cc(-c4cccc(Cl)c4)c3c2)c1 (stereo not shown) [drawing 431]
5. COc1ccccc1-c1n[nH]c2ncc(-c3cccc(C(O)C(=O)N4CCC(O)CC4)c3)cc12 (stereo not shown)
6. COc1ccccc1-c1c[nH]c2ncc(-c3cccc(C(N)CC(=O)N(C)C)c3)cc12 (stereo not shown)
7. COc1ccccc1-c1c[nH]c2ncc(-c3cccc(C(O)C(=O)N4CC(O)C4)c3)cc12 (stereo not shown)
8. COc1ccccc1-c1n[nH]c2ncc(-c3cccc(C(O)C(N)=O)c3)cc12 (stereo not shown)

["< 1 µM", "< 1 µM", "< 1 µM", "< 1 µM", "> 1 µM", "> 1 µM", "< 1 µM", "< 1 µM"]

Fill in GI50 for each of the 2 compounds listed.
1. COc1ccccc1-c1n[nH]c2ncc(-c3cccc(C(O)c4ccccn4)c3)cc12 (stereo not shown)
2. Cc1ccc(-c2c[nH]c3ncc(-c4cncc(C(O)C(=O)N(C)C)c4)cc23)cc1 (stereo not shown)

< 1 µM
> 1 µM
